- MEASUREMENT_NOTES: Kinetic solubility of compound in Tris-HCl buffer at pH 7.4 at 10 mM incubated in supersonic bath for 30 mins measured after 24 hrs by LC-MS analysis
- Assay type: physicochemical
- STATED_CONDITIONS: Tris-HCl buffer, pH 7.4; read-out: Kinetic_solubility
READOUT_NAME: solubility kinetic at 24 h, 10000 µM (µg/mL)

[
  {
    "QUERY_SMILES": "CCCOC(=O)C1=C[C@H](O)[C@@H](NC(C)=O)[C@H]([C@H](O)[C@H](O)Cn2cc(-c3ccc(-c4ccccc4)cc3)nn2)O1",
    "solubility kinetic at 24 h, 10000 µM [µg/mL]": 2.8
  }
]

[a] CCOC(=O)C1=C[C@H](O)[C@@H](NC(C)=O)[C@H]([C@H](O)[C@H](O)Cn2cc(-c3ccc(-c4ccccc4)cc3)nn2)O1
[b] CCCCOC(=O)C1=C[C@H](O)[C@@H](NC(C)=O)[C@H]([C@H](O)[C@H](O)Cn2cc(-c3ccc(-c4ccccc4)cc3)nn2)O1
## Input Which entry shows the lesser value of solubility kinetic at 24 h, 10000 µM here, a or b ? Use the label to indicate which entry you chose.
## Output b
(b: 3.9 µg/mL, a: 13.8 µg/mL)
